test system: HOP-92 NSCLC; assay: NCI tumour cell line growth inhibition, 48 h
Listed here: items and their measured TGI.
Property Label: TGI

> print(dat)
                              sample.smiles  property.label     result
1  Clc1ccc(OCc2nnc3n2N=C(c2ccccc2)CS3)c(Cl)c1             TGI   > 100 µM
2            CCOc1ccc(N=Cc2ccnc3ccccc23)cc1             TGI   > 100 µM
3          CCc1nn2ncccc2c1-c1ccnc(NC2CC2)n1             TGI    > 25 µM
4  C[n+]1cn(-c2nc3ccccc3nc2[N-]S(=O)(=O)c2ccccc2)c2ccccc21             TGI   > 100 µM
5  [N-]=[N+]=Nc1ccc2c(c1)Sc1ccccc1N2CCCCN1CCN(C(=O)CCNC(=O)Cc2ccc(C(=O)c3ccccc3)cc2)CC1             TGI  > 29.2 µM

====

test system: SF-539 CNS; test: NCI tumour cell line growth inhibition, 48 h
Listed here: items and their measured TGI.
Property Label: TGI

> print(dat)
                                   compound  property.label    result
1    C=CCn1c(-c2ccc(Cl)cc2)csc1=Nc1ccccc1OC             TGI  > 100 µM
2                O=c1c2cccnc2ncn1CCCN1CCCC1             TGI  > 100 µM
3  COc1ccc(CCN2C(=O)CC34C=CC(CC3C2=O)O4)cc1OC (stereo not given)             TGI  > 100 µM
4  COc1cc(OC)c(C2(c3c(OC(C)C)c(=O)c3=O)SCCCS2)cc1OC             TGI  > 100 µM
5  CCOC1CCN(C(=O)c2ccccc2)O1 (stereo not given)             TGI   > 10 µM

====

system: UACC-257 melanoma; assay: NCI tumour cell line growth inhibition, 48 h
Property Label: TGI

> print(dat)
                                   compound    result
1  CCOC(=O)C1=C(C(=O)OCC)C2(c3ccccc3)N(O1)c1ccccc1C2(C)C (stereo unspecified)  > 100 µM
2  O=c1[nH]c(=O)n(C2CC(O)C(CO)O2)cc1COCC(F)(F)F (stereo unspecified)  > 100 µM
3               CCn1c(=N)sc2nc3ccccc3n2c1=O  > 100 µM
4  C/C(CC(=O)Nc1ccc(NC(=O)C/C(C)=N\NC(N)=O)cc1)=N/NC(N)=O  > 100 µM
5  Cc1ccc(C(=O)N/N=C2/C(=O)c3c4ccccc4cc4cccc2c34)cc1  > 100 µM
6  COc1cccc2cc(C(=O)NC34CC5CC(CC(C5)C3)C4)c(=N)oc12  > 100 µM

====

test system: SK-MEL-5 melanoma; experiment: NCI tumour cell line growth inhibition, 48 h
Property Label: TGI (µM)

> print(dat)
                                   molecule  endpoint.unit  comparison.symbol  numeric.value
1  C=Cc1c(C)c2cc3[nH]c(cc4nc(cc5nc(cc1[nH]2)C(C)=C5CCC(=O)N(CC)CC)C(CCC(=O)N(CC)CC)=C4C)c(C)c3C=C             µM                  >            100
2  Cc1ccc(C2C(Cl)C(=O)N2NC(=O)c2ccc(N)cc2)cc1 (stereo not given)             µM                  =           29.7
3  Cc1c(C)c2c(c(C)c1OCC(=O)O)CC[C@@](C)(CCC[C@@H](C)CCC[C@@H](C)CCCC(C)C)O2             µM                  =            122
4                      O=C(O)Cn1ccc2ccccc21             µM                  >            100
5  CCC[CH2][Sn]([CH2]CCC)([CH2]CCC)[O]C(=O)C(OC)c1ccccc1 (stereo not given)             µM                  =          0.262

====

test system: UACC-62 melanoma; assay: NCI tumour cell line growth inhibition, 48 h

Compound	TGI
O=C1NC(=Nc2ccccc2Cl)N/C1=C\c1ccc(Cl)cc1Cl	> 100 µM
CC(=O)OC1C(O[C@H]2CC[C@]34O[C@]35CC[C@]3(C)C(C6(C)CC[C@@H](C(C)(C)O)O6)[C@@H](O)CC3(C)[C@@H]5CC(OC3OC(CO)C(O)C(O)C3O)C4C2(C)C)OCC(O)C1O (stereo not given in full)	> 100 µM
CC12OC(C(=O)C13CCC3)C1C(=O)c3ccc4c(ccc5ccccc54)c3C(=O)C12 (stereo not given)	> 100 µM
COc1cc2nc(-c3cccc4cccnc34)nc(NC3CCN(Cc4ccccc4)CC3)c2cc1OC	4.02 µM
O=C1/C(=C/c2ccccc2)CCCc2ccccc21	28.6 µM
C=CCn1c(-c2ccc(Cl)cc2)csc1=Nc1ccccc1OC	> 94 µM
O=C(Nc1ccc2c(c1)OCCO2)C(=O)c1c[nH]c2ccccc12	> 100 µM
COC(=O)N/N=C(\C)C(CN(C)C)C(c1ccccc1)c1c(O)c2ccccc2oc1=O (stereo not given)	> 100 µM
O=C1NC(=Nc2ccccc2)C(=Nc2ccccc2)N1c1ccccc1	25.3 µM
CN(C)c1ccc(/C=C(\NC(=O)c2ccccc2)C(=O)NC(Cc2c[nH]c3ccccc23)C(=O)O)cc1 (stereo not given)	> 100 µM
Nc1c2cc3ccc2nc2ccc(cc12)OCCOCCOCCOCCOCCOCCO3	> 10 µM
S=C(CSc1ccccc1)Nc1cccc2ccccc12	> 100 µM
O=c1c2cccnc2ncn1CCCN1CCCC1	> 100 µM
CC(=O)NC1C(OCc2ccccc2)OC(CO)C(O)C1OCC(=O)N[C@@H](C)C(=O)N[C@H](CCC(=O)NCCNc1ccc([N+](=O)[O-])c2[nH]c3ccccc3c(=O)c12)C(N)=O (stereo not given in full)	46.6 µM
O=c1[nH]c(=O)n([C@@H]2O[C@H](CO)[C@@H](O)[C@@H]2F)cc1I	> 100 µM
COc1ccc(/C=C/C(=O)Oc2ccccc2OC)cc1	97.9 µM
CCOC(=O)C#Cc1c(C(=O)OCC)nnn1[C@@H]1O[C@H](CO)[C@H]2OC3(CCCCC3)O[C@H]21	4.55 µM
Nc1nc2c(ccc3ccccc32)s1	> 100 µM
C/C(O)=C(\N=O)C(=O)NCc1ccccc1	> 100 µM
COc1cc(S(=O)(=O)Nc2ccc(-c3csc(N4C(=O)C(Cl)C4c4cccs4)n3)cc2)ccc1Cl (stereo not given)	> 100 µM
COc1ccc(-c2nsc3c2NC(=O)CC3c2cccc(Cl)c2)cc1 (stereo not given)	> 100 µM
Cc1cc(C)nc(NS(=O)(=O)c2ccc(NC(=O)c3cc([N+](=O)[O-])cc([N+](=O)[O-])c3)cc2)n1	> 100 µM
COC(=O)/C(=C/c1ccc(OC)cc1)C(C(=O)O)=C1CCCCC1	> 100 µM
CN(C)N=Nc1ccc2[nH]c(=O)[nH]c2c1	> 100 µM
Cc1noc(C)c1-c1cnc2c(-c3ccc(C(=O)O)cc3)cn([C@@H](C)c3ccccn3)c2c1	20.2 µM
C/C(=N\NC(N)=S)c1sc(-n2nc(-c3ccccc3)cc2-c2ccccc2)nc1C	> 100 µM
CCNC(=S)NNC(=O)CSc1nc2ccc(I)cc2c(=O)n1Cc1ccccc1	> 100 µM
CCOC(=O)/C=C(/C(=O)OCC)n1ccc(=O)n(Cc2cnnn2CCCCOC(C)=O)c1=O	> 100 µM
O/N=C\C(=Nc1ccc(Cc2ccc(N=C(/C=N\O)NO)cc2)cc1)NO	> 100 µM
CCC(C)(O)c1cn(-c2ccc(S(=O)(=O)O)cc2)nn1 (stereo not given)	> 100 µM

====

Listed here: items and their measured TGI.
tested on: OVCAR-8 ovarian; test: NCI tumour cell line growth inhibition, 48 h
Property Label: TGI

> print(dat)
                                   compound  property.label     result
1  COc1cccc(NC(=O)c2sc3nc4c(cc3c2N)C(O)CCC4)c1 (centres undefined)             TGI   > 100 µM
2  Clc1ccc(OCc2nnc3n2N=C(c2ccccc2)CS3)c(Cl)c1             TGI   > 100 µM
3         COc1ccc(/C=C/C(=O)Oc2ccccc2OC)cc1             TGI  > 71.9 µM
4  Cc1cc(C)nc(NS(=O)(=O)c2ccc(NC(=O)c3cc([N+](=O)[O-])cc([N+](=O)[O-])c3)cc2)n1             TGI   > 100 µM
